Molecular target: T1, Recombinant mouse MMR (R&D systems) (mouse, UniProt Q61830 20-1388)
T1 construct: Antigen of the PE-ELISA and the SPR; also called mMMR; recombinant mMMR
T1 sequence: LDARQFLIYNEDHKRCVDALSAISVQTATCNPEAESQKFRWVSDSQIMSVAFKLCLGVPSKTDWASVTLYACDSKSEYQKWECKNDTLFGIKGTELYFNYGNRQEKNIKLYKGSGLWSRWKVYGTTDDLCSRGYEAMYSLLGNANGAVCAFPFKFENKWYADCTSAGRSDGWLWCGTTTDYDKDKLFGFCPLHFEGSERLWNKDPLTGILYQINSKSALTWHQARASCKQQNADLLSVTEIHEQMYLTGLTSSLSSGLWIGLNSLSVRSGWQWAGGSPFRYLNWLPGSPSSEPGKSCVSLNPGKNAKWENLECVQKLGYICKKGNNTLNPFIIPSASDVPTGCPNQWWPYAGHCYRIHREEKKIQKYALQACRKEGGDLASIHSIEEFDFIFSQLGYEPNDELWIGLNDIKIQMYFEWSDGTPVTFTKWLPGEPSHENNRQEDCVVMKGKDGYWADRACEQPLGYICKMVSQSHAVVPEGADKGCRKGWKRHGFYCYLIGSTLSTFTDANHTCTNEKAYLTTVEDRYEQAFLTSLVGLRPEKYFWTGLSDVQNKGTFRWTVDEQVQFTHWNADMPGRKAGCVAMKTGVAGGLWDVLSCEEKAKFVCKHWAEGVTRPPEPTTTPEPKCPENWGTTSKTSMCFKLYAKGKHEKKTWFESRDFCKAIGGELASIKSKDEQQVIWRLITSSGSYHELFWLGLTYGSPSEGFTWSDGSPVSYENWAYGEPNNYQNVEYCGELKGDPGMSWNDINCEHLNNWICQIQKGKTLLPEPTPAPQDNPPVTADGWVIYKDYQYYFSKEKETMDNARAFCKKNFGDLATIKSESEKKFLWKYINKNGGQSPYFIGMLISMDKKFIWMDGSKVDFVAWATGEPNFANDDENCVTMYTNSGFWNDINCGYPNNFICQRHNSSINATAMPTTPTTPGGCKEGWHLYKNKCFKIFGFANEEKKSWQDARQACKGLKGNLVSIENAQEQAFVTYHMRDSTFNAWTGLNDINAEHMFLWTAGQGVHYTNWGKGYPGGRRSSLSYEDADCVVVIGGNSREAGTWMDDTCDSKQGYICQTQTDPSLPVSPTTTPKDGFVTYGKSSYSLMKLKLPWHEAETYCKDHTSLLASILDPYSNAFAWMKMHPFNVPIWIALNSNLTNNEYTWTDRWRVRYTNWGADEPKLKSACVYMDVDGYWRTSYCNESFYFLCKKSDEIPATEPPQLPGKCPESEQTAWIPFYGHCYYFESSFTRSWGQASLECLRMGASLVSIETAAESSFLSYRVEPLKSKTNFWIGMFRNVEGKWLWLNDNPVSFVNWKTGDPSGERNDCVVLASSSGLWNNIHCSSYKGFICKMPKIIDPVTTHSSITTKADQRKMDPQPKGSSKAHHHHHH
Test: SPR, BIAcore T100; mouse MMR on CM5 chip, sdAb as analyte
assay endpoint: koff (s⁻¹)
Report only the number, with the unit s⁻¹ understood.

Quick one: koff for NbhmMMRm15.49 (VHH, Produced from pMECS with C-terminal HA and 6xHis tag) VHH: QVQLQESGGGLVQAGGSLRLSCAASGSTFSINNMGWYRQAPGKQRELVAGITGGNTHYADSVKGRFTISRDNAKNTMYLQMNSLKPEDTAVYYCNANWGAYWGQGTQVTVSS ?
0.0013

Likewise for NbhmMMRm14.93 (VHH, Produced from pMECS with C-terminal HA and 6xHis tag) VHH: QVQLQESGGGLVQAGDSLRLSCAASGRTFSINYMGWYRQAPGKQRELVAAITSGSGSTNYADSVKGRFTISRDNAKKTMYLQMNSLKPEDTAVYYCNADMDSSLSGGYVDVWGQGTQVTVSS ?
0.0021

---
Quick one: koff for NbhmMMRm20.52 (VHH, Produced from pMECS with C-terminal HA and 6xHis tag) VHH: QVQLQESGGGLVQAGGSLRLSCAASGRIFSAYAMGWFRQAPGKEREFVAAISRSGDSTDYADSVKGRFTISRDSAKNMVYLQMNSLKPEDTALYHCAARTVSAPPSAAWGYGYWGQGTQVTVSS ?
0.002
